- methodNotes: chemical genetic growth profiling, strain panel (AID 1159580);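 further: tested at 20 µM; growth read once vehicle control cultures reached saturation at 30 °C; 1 = growth at the plate median or of vehicle wells; lower values mean less growth of the strain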
- condition: S. cerevisiae deletion strains, growth OD, locus YNL307C, strain MCK1, hits give low values
Screen size: about 5,500 compounds; about 2,000 (36%) were called active. Another 18% or so got no clear call; they are omitted. Some of the results follow.
readout: normalized growth

>  <compound>
CC(=O)O[C@H]1C[C@@H](OC(C)=O)C(C)(C)C2C[C@@H](OC(C)=O)[C@]3(C)C(CC[C@@]4(C)[C@H](c5ccoc5)C(=O)[C@H]5O[C@]543)[C@]21C (some centres undefined)

>  <recordedResult>
1.02 (inactive)

$$$$
>  <compound>
COc1ccccc1-c1cc(=O)c2cccc(OC)c2o1

>  <recordedResult>
0.758 (active)

$$$$
>  <compound>
CC[C@@]1(C2O[C@@H](C3O[C@@](O)(CC)[C@H](C)C[C@@H]3C)C[C@@H]2C)CC[C@H]([C@]2(C)CCC3(C[C@H](O)[C@@H](C)[C@@H]([C@H](C)[C@@H](OC)[C@H](C)C(=O)O)O3)O2)O1 (some centres undefined)

>  <recordedResult>
1.05 (inactive)

$$$$
>  <compound>
OCC(S)CS (centres undefined)

>  <recordedResult>
0.998 (inactive)

$$$$

###

- methodNotes: chemical genetic growth profiling, strain panel (AID 1159580);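 further: tested at 20 µM; growth read once vehicle control cultures reached saturation at 30 °C; 1 = growth at the plate median or of vehicle wells; lower values mean less growth of the strain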
- condition: S. cerevisiae deletion strains, growth OD, locus YKR001C, strain vps1
The whole screen tested about 5,500 compounds, of which about 2,000 (36%) were called active. About 18% were inconclusive and are not listed. Rule as the data show it: active = normalized growth mostly below about 0.91 (no sharp cut-off); inconclusive = no clear call, values can overlap the other calls; inactive = mostly above about 0.92. Some of the results follow.
Outcomes: active, inactive

>  <compound>
COc1ccc(-c2cc(C(F)F)nn2-c2ccc(S(N)(=O)=O)cc2)cc1F

>  <class>
inactive

$$$$
>  <compound>
C[C@@H]1CC2C3CCC4=CC(=O)C=C[C@]4(C)[C@@]3(F)[C@@H](O)C[C@]2(C)[C@@]1(O)C(=O)COP(=O)(O)O (stereo partly specified)

>  <class>
inactive

$$$$
>  <compound>
COc1cc(/C=C/C(=O)O)ccc1O

>  <class>
inactive

$$$$
>  <compound>
COc1cc(C(=O)O)c(O)c2c1OCO2

>  <class>
inactive

$$$$
>  <compound>
C[C@H](COc1ccccc1)N[C@H](C)[C@H](O)c1ccc(O)cc1

>  <class>
inactive

$$$$
>  <compound>
C=CCc1cc(OC)c2c(c1OC)OCO2

>  <class>
inactive

$$$$
>  <compound>
CC1=C(/C=C/C(C)=C/C=C/C(C)=C/C(=O)O)C(C)(C)CCC1

>  <class>
inactive

$$$$
>  <compound>
COc1c(C2COc3cc4c(cc3C2=O)CC(O)C(C)(C)O4)ccc2c1CCC(C)(C)O2 (stereo unspecified)

>  <class>
inactive

$$$$
>  <compound>
CC1=C(/C=C/C(C)=C/C=C/C(C)=C/CO)C(C)(C)CCC1

>  <class>
inactive

$$$$
>  <compound>
C[C@@]12C(=O)OC(=O)[C@]1(C)C1CCC2O1

>  <class>
active

$$$$
>  <compound>
CCCNC(C)C(=O)Nc1ccccc1C (stereo unspecified)

>  <class>
inactive

$$$$

###

Measured normalized growth, listed per entry.
- methodNotes: chemical genetic growth profiling, strain panel (AID 1159580);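 further: tested at 20 µM; growth read once vehicle control cultures reached saturation at 30 °C; 1 = growth at the plate median or of vehicle wells; lower values mean less growth of the strain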
- condition: S. cerevisiae deletion strains, growth OD, locus YNL271C, strain bni1, hits give low values
In all, about 5,500 compounds went through this assay and about 2,000 (36%) were called active. Another 18% or so got no clear call; they are omitted. Some of the results follow.
readout: normalized growth

>  <compound>
C[C@@H]1C[C@@H]([C@H](O)CC2CC(=O)NC(=O)C2)C(=O)[C@@H](C)C1

>  <recordedResult>
0.0609

$$$$
>  <compound>
COc1ccc(C[C@H](N)C(=O)N[C@@H]2[C@@H](CO)OC(n3cnc4c(N(C)C)ncnc43)[C@@H]2O)cc1 (stereo partly drawn)

>  <recordedResult>
1.01

$$$$
>  <compound>
COC(=O)[C@H]1[C@H]2C[C@@H]3c4[nH]c5cc(OC)ccc5c4CCN3C[C@H]2C[C@@H](OC(=O)c2cc(OC)c(OC)c(OC)c2)[C@@H]1OC

>  <recordedResult>
1.02

$$$$

###

- methodNotes: chemical genetic growth profiling, strain panel (AID 1159580);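 further: tested at 20 µM; growth read once vehicle control cultures reached saturation at 30 °C; 1 = growth at the plate median or of vehicle wells; lower values mean less growth of the strain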
- condition: S. cerevisiae deletion strains, growth OD, locus YFR010W, strain ubp6, hits give low values
Out of some 5,500 compounds screened, about 2,000 (36%) were called active. Inconclusive results (about 18%) are left out. This is one part of the list.

>  <compound>
CCOC(N)=O

>  <normalized growth>
0.997

$$$$
>  <compound>
COc1cc(/C=C/C(=O)O)cc(OC)c1OC

>  <normalized growth>
0.988

$$$$
>  <compound>
CCn1cc(C(=O)O)c(=O)c2ccc(C)nc21

>  <normalized growth>
0.974

$$$$
>  <compound>
C[C@H](COc1ccccc1)N[C@H](C)[C@H](O)c1ccc(O)cc1

>  <normalized growth>
0.996

$$$$
>  <compound>
CCn1cc(C(=O)O)c(=O)c2cnc(N3CCNCC3)nc21

>  <normalized growth>
1

$$$$
>  <compound>
CC(Cc1ccc(O)c(O)c1)(NN)C(=O)O (configuration not stated)

>  <normalized growth>
0.986

$$$$
>  <compound>
O=C(O)P(=O)(O)O

>  <normalized growth>
0.965

$$$$
>  <compound>
COc1ccccc1OCC(O)CN1CCN(CC(=O)Nc2c(C)cccc2C)CC1 (configuration not stated)

>  <normalized growth>
0.97

$$$$
>  <compound>
S=c1[nH]c2ccccc2s1

>  <normalized growth>
0.95

$$$$
>  <compound>
C[C@@H]1C[C@@H]([C@H](O)CC2CC(=O)NC(=O)C2)C(=O)[C@@H](C)C1

>  <normalized growth>
0.0674

$$$$
>  <compound>
O=C(O)CCCCC1SCC2NC(=O)NC21 (configuration not stated)

>  <normalized growth>
0.995

$$$$
>  <compound>
Nc1nc2ncc(CNc3ccc(C(=O)N[C@@H](CCC(=O)O)C(=O)O)cc3)nc2c(=O)[nH]1

>  <normalized growth>
1.01

$$$$
>  <compound>
Nc1ccc(S(=O)(=O)Nc2nccs2)cc1

>  <normalized growth>
1.02

$$$$
>  <compound>
COc1ccc(/C=C/C(=O)O)cc1OC

>  <normalized growth>
0.955

$$$$
>  <compound>
COP(=S)(OC)Oc1ccc(SC)c(C)c1

>  <normalized growth>
1.03

$$$$
>  <compound>
CCCCC(CC)CN=C(N)NC(N)=NCCCCCCN=C(N)NC(N)=NCC(CC)CCCC (configuration not stated)

>  <normalized growth>
0.0674

$$$$
>  <compound>
CCOc1ccc2c(c1)C(C)=CC(C)(C)N2

>  <normalized growth>
0.977

$$$$
>  <compound>
O=C(O)c1cc(O)c(O)c(O)c1

>  <normalized growth>
0.998

$$$$
>  <compound>
CCN(CC)CCOC(=O)C(Cc1cccc2ccccc12)CC1CCCO1 (configuration not stated)

>  <normalized growth>
1.02

$$$$
>  <compound>
Cc1cccc(CN2CCN(C(c3ccccc3)c3ccc(Cl)cc3)CC2)c1 (configuration not stated)

>  <normalized growth>
0.699

$$$$
>  <compound>
Nc1nccs1

>  <normalized growth>
0.991

$$$$
>  <compound>
CCC(COC(=O)c1cc(OC)c(OC)c(OC)c1)(c1ccccc1)N(C)C (configuration not stated)

>  <normalized growth>
0.984

$$$$
>  <compound>
CC1=C(/C=C/C(C)=C/C=C/C(C)=C/CO)C(C)(C)CCC1

>  <normalized growth>
0.988

$$$$
>  <compound>
OC1CCCCC1N1CCC(c2ccccc2)CC1 (configuration not stated)

>  <normalized growth>
0.988

$$$$
>  <compound>
C=CC1=C(C)/C(=C/c2[nH]c(Cc3[nH]c(/C=C4\NC(=O)C(C)=C4C=C)c(C)c3CCC(=O)O)c(CCC(=O)O)c2C)NC1=O

>  <normalized growth>
0.985

$$$$
>  <compound>
NCCCCN=C(N)N

>  <normalized growth>
1.04

$$$$
>  <compound>
COc1cc(C)c2c(c1C=O)Oc1c(c(C)c(O)c3c1C(O)OC3=O)OC2=O (configuration not stated)

>  <normalized growth>
1.02

$$$$
>  <compound>
CC1(C)C2CC(=O)O[C@@]3(C)C4=CC(=O)O[C@@H](c5ccoc5)[C@]4(C)CCC3[C@@]2(C)C=C[C@H]1O (some centres not stated)

>  <normalized growth>
0.971

$$$$
>  <compound>
CC1(C)O[C@@H]2[C@@H](CO[C@@]3(COS(N)(=O)=O)OC(C)(C)O[C@@H]23)O1

>  <normalized growth>
0.983

$$$$
>  <compound>
c1ccc(-c2ccc(C(c3ccccc3)n3ccnc3)cc2)cc1 (configuration not stated)

>  <normalized growth>
0.0846

$$$$
>  <compound>
COC(=O)[C@H]1[C@H]2C[C@@H]3c4[nH]c5cc(OC)ccc5c4CCN3C[C@H]2C[C@@H](OC(=O)c2cc(OC)c(OC)c(OC)c2)[C@@H]1OC

>  <normalized growth>
1.01

$$$$
>  <compound>
NCc1ccc(S(N)(=O)=O)cc1

>  <normalized growth>
0.995

$$$$
>  <compound>
c1ccc2[nH]c(-c3cscn3)nc2c1

>  <normalized growth>
0.986

$$$$
>  <compound>
Nc1nc(N)c2nc(CNc3ccc(C(=O)NC(CCC(=O)O)C(=O)O)cc3)cnc2n1 (configuration not stated)

>  <normalized growth>
0.982

$$$$
>  <compound>
c1cc2c(cc1[C@H]1OC[C@H]3[C@@H]1CO[C@H]3c1ccc3c(c1)OCO3)OCO2

>  <normalized growth>
0.938

$$$$
>  <compound>
O=C1CN(/N=C\c2ccc([N+](=O)[O-])o2)C(=O)N1

>  <normalized growth>
0.942

$$$$
>  <compound>
Nc1nc2c(c(=O)[nH]1)N(C=O)C(CNc1ccc(C(=O)N[C@@H](CCC(=O)O)C(=O)O)cc1)CN2 (some centres not stated)

>  <normalized growth>
0.931

$$$$
>  <compound>
O=C(NC(Cc1cc(=O)[nH]c2ccccc12)C(=O)O)c1ccc(Cl)cc1 (configuration not stated)

>  <normalized growth>
0.995

$$$$
>  <compound>
CCn1cc(C(=O)O)c(=O)c2cc3c(cc21)OCO3

>  <normalized growth>
0.97

$$$$
>  <compound>
C[C@](N)(Cc1ccc(O)cc1)C(=O)O

>  <normalized growth>
1

$$$$
>  <compound>
COc1ccc(C=CC(=O)c2ccc(O)cc2O)cc1OC

>  <normalized growth>
0.96

$$$$
>  <compound>
O=C(O)CCC(=O)c1ccc(-c2ccccc2)cc1

>  <normalized growth>
0.986

$$$$
>  <compound>
CC[C@]12CCCN3CCc4c(n(c5ccccc45)[C@](O)(C(=O)OC)C1)[C@@H]32

>  <normalized growth>
0.998

$$$$
>  <compound>
NC(=O)c1cc[n+](CC2=C(C(=O)O)N3C(=O)C(NC(=O)C(c4ccccc4)S(=O)(=O)[O-])C3SC2)cc1 (configuration not stated)

>  <normalized growth>
0.974

$$$$
>  <compound>
NC(=O)c1ccc(N)nc1

>  <normalized growth>
1

$$$$
>  <compound>
CC(COc1ccccc1)N(CCCl)Cc1ccccc1 (configuration not stated)

>  <normalized growth>
0.986

$$$$
>  <compound>
CN(Cc1cc(Br)cc(Br)c1N)C1CCCCC1

>  <normalized growth>
0.994

$$$$
